src = patent US5480906A

Reported IC50 for inhibition of PI-3-kinase values for the following compounds.
- Measured on: purified bovine brain PI 3-kinase
- Assay overview: Assay of purified PI-3 kinase activity (32P incorporation into phosphatidylinositol, TLC/scintillation)
- Format: biochemical
- Test context: purified bovine brain PI 3-kinase, 10 min preincubation, 20 μM ATP, 3% DMSO

- Compound: "CCCCC(=O)O[C@@H]1C[C@]2(C)C(=O)CC[C@H]2C2=C1[C@]1(C)c3c(coc3C2=O)C(=O)O[C@@H]1COC"
  Comparison symbol: "="
  IC50 for inhibition of PI-3-kinase [ng/mL]: 1.2
- Compound: "CCC(=O)O[C@@H]1C[C@]2(C)C(=O)CC[C@H]2C2=C1[C@]1(C)c3c(coc3C2=O)C(=O)O[C@@H]1COC"
  Comparison symbol: "="
  IC50 for inhibition of PI-3-kinase [ng/mL]: 0.6
- Compound: "CCN(C=C1C(=O)O[C@H](COC)[C@@]2(C)C1=C(O)C(=O)C1=C2[C@H](O)C[C@]2(C)C(=O)CC[C@@H]12)CC"
  Comparison symbol: ">"
  IC50 for inhibition of PI-3-kinase [ng/mL]: 10
- Compound: "CCC(=O)O[C@@H]1C[C@]2(C)[C@@H](O)CC[C@H]2C2=C1[C@]1(C)c3c(coc3C2=O)C(=O)O[C@@H]1COC"
  Comparison symbol: "="
  IC50 for inhibition of PI-3-kinase [ng/mL]: 0.38
- Compound: "COC[C@H]1OC(=O)c2coc3c2[C@@]1(C)C1=C(C3=O)[C@@H]2CCC(=O)[C@@]2(C)CC1=O [c, 11-dehydro Wortmannin]"
  Comparison symbol: "="
  IC50 for inhibition of PI-3-kinase [ng/mL]: 1.6
- Compound: "C=CC(=O)O[C@@H]1C[C@]2(C)C(=O)CC[C@H]2C2=C1[C@]1(C)c3c(coc3C2=O)C(=O)O[C@@H]1COC"
  Comparison symbol: "="
  IC50 for inhibition of PI-3-kinase [ng/mL]: 0.95
- Compound: "COC[C@H]1OC(=O)c2coc3c2[C@@]1(C)C1=C(C3=O)[C@@H]2CCC(=O)[C@@]2(C)C[C@H]1OC(=O)Cc1ccccc1"
  Comparison symbol: "="
  IC50 for inhibition of PI-3-kinase [ng/mL]: 1.53
- Compound: "CCC(=O)O[C@@H]1C[C@]2(C)[C@@H](OC(C)=O)CC[C@H]2C2=C1[C@]1(C)c3c(coc3C2=O)C(=O)O[C@@H]1COC"
  Comparison symbol: "="
  IC50 for inhibition of PI-3-kinase [ng/mL]: 56.5
- Compound: "COC[C@H]1OC(=O)c2coc3c2[C@@]1(C)C1=C(C3=O)[C@@H]2CCC(O)[C@@]2(C)C[C@H]1O (some centres unmarked) [d, 11,17-desacetyl-dihydro Wortmannin]"
  Comparison symbol: ">"
  IC50 for inhibition of PI-3-kinase [ng/mL]: 10
- Compound: "COC[C@H]1OC(=O)c2coc3c2[C@@]1(C)C1=C(C3=O)[C@@H]2CCC(=O)[C@@]2(C)C[C@H]1O"
  Comparison symbol: "="
  IC50 for inhibition of PI-3-kinase [ng/mL]: 10
- Compound: "COC[C@H]1OC(=O)c2coc3c2[C@@]1(C)C1=C(C3=O)[C@@H]2CCC(=O)[C@@]2(C)C[C@H]1OC(=O)CCN(C)C"
  Comparison symbol: "="
  IC50 for inhibition of PI-3-kinase [ng/mL]: 8.6

###

- Measured on: purified bovine brain PI 3-kinase
- Assay overview: Assay of purified PI-3 kinase activity (32P incorporation into phosphatidylinositol, TLC/scintillation)
- Format: biochemical
- Test context: purified bovine brain PI 3-kinase, 10 min preincubation, 20 μM ATP, 3% DMSO

- Compound: "COC[C@H]1OC(=O)c2coc3c2[C@@]1(C)C1=C(C3=O)[C@@H]2CCC(=O)[C@@]2(C)C[C@H]1OC(=O)CC(C)C [iA, 11-isovaleryl-desacetyl-Wortmannin]"
  IC50 for inhibition of PI-3-kinase, ng/mL: 1.16
- Compound: "COC[C@H]1OC(=O)c2coc3c2[C@@]1(C)C1=C(C3=O)[C@@H]2CCC(=O)[C@@]2(C)C[C@H]1OC(=O)CCl [l, 11-chloroacetyldesacetyl-Wortmannin]"
  IC50 for inhibition of PI-3-kinase, ng/mL: 1.3
- Compound: "CCCC(=O)O[C@@H]1C[C@]2(C)C(=O)CC[C@H]2C2=C1[C@]1(C)c3c(coc3C2=O)C(=O)O[C@@H]1COC [h, 11-butyryl-desacetyl-Wortmannin]"
  IC50 for inhibition of PI-3-kinase, ng/mL: 0.4
